Just for reference, PubChem BioAssay (NCI) is where these values come from.

- Test system: NCI-H23 lung
- measurement notes: NCI tumour cell line growth inhibition, 48 h
Where a SMILES comes first, the peptide text is derived from it. [ ]: non-standard residue; d: D form. Phe(4-Cl) = N[CH](Cc1ccc(Cl)cc1)C(=O)O
readout label: TGI

[[record]]
compound = "CC(C)c1ccc(C(=O)Nc2sc3c(c2C(N)=O)CCC(=O)C3)cc1"
reported_result = "2.45 µM"

[[record]]
compound = "C=C(C)C1CC=C(C)C(=O)C1 (stereo not given)"
reported_result = "> 100 µM"

[[record]]
compound = "CC(C)OC(=O)c1ccc(NCC2=CC(=O)C=CC2=O)cc1"
reported_result = "29 µM"

[[record]]
compound = "COc1cc2c(/C=C3/C(=O)Nc4ccc(O)cc43)c(Cl)n(Cc3ccccc3)c2cc1C"
reported_result = "3.89 µM"

[[record]]
compound = "CC(O)C(NC(=O)C(Cc1ccccc1)NC(=O)C(NC(=O)C(CCCCN)NC(=O)C(Cc1c[nH]c2ccccc12)NC(=O)C(Cc1ccc(O)cc1)NC(=O)C(Cc1ccc(Cl)cc1)NC(=O)C(N)Cc1ccccc1)C(C)O)C(N)=O (stereo not given) (H-F[Phe(4-Cl)]YWKTFT-NH2; configuration not given here)"
reported_result = "41.2 µM"

[[record]]
compound = "O=c1cccccc1NCCCNc1cccccc1=O"
reported_result = "> 100 µM"

[[record]]
compound = "CC(=O)OC1=NN=C2COC(c3ccccc3OC(C)=O)=NN2C1"
reported_result = "> 50 µM"

[[record]]
compound = "CC[O-].CC[O-].O=C1c2ccccc2C(=O)c2c(O)ccc([O-])c21.O=C1c2ccccc2C(=O)c2c(O)ccc([O-])c21.[Ti+4]"
reported_result = "> 100 µM"

[[record]]
compound = "Cc1ccc(N(C(=O)CC(=O)NN)C(=O)c2ccccc2Cl)cc1"
reported_result = "> 100 µM"

[[record]]
compound = "COc1ccc(-c2cn3ccsc3n2)cc1"
reported_result = "> 100 µM"

[[record]]
compound = "CC(=O)[CH-]C(=O)c1ccccc1.CC(=O)[CH-]C(=O)c1ccccc1.O=C([O-])c1ccc([O-])cc1.O=C([O-])c1ccc([O-])cc1.[Ti+4]"
reported_result = "> 100 µM"

[[record]]
compound = "CC(=O)c1c(-c2ccc(Cl)cc2)c(-c2ccc(Cl)cc2)n[nH]c1=O"
reported_result = "> 100 µM"

[[record]]
compound = "CCCCCCCCCCCCCC1CCC(CC)N1 (stereo not given)"
reported_result = "32.9 µM"

[[record]]
compound = "COC(=O)C1C2OC(C)(C)OC2CN1S(=O)(=O)c1ccc(C)cc1 (stereo not given)"
reported_result = "> 100 µM"

[[record]]
compound = "C=CCCCCCCCCC(=O)NS(=O)(=O)c1ccccc1"
reported_result = "> 100 µM"

[[record]]
compound = "O=C(O)CP(=S)(S)c1ccccc1 (stereo not given)"
reported_result = "> 100 µM"

[[record]]
compound = "CC(C)=CCc1c(O)cc(O)c2c1OC(c1ccc(O)cc1)C(O)C2=O (stereo not given)"
reported_result = "45.8 µM"

[[record]]
compound = "COC(=O)/C(C)=N/NC(=S)SC"
reported_result = "> 100 µM"

[[record]]
compound = "C=CCN1C(=O)/C(=C/c2ccc(Cl)cc2)N=C1SC/C=C/C"
reported_result = "> 100 µM"

[[record]]
compound = "Cc1[nH]c(=O)[nH]c(=O)c1/C=C/C(=O)NC(CO)CC(C)C (stereo not given)"
reported_result = "> 375 µM"

